# studyTarget: Mu-type opioid receptor (Homo sapiens)
# Sequence (P35372 whole entry): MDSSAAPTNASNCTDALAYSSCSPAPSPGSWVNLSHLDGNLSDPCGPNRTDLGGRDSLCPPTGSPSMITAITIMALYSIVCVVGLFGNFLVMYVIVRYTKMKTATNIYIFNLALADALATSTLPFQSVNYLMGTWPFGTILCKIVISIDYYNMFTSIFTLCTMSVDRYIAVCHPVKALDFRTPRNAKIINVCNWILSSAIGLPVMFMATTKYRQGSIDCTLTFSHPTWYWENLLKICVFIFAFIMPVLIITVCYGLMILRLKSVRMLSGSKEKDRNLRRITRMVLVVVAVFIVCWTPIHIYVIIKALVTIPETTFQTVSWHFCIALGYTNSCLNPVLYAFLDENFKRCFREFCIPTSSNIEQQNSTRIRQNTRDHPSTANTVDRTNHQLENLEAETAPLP
# experiment: Displacement of [3H]DPN from recombinant human mu opioid receptor expressed in CHOK1 cell membranes
Lab note: anything with Ki below 3 nM is marked fulfilled; values at 3 nM or higher are marked not fulfilled.

compound	labelClass
O=C(CN1[C@@H]2CC[C@@H]1CC(c1cccc(O)c1)C2)C1CCCCC1 (relative stereo; 22a)	fulfilled
CCCCCCCN1[C@@H]2CC[C@@H]1CC(c1cccc(O)c1)C2 (relative stereo; 17b)	not fulfilled
Oc1cccc(C2C[C@H]3CC[C@H](C2)N3CC(O)Cc2ccccc2)c1 (relative stereo; 23a)	fulfilled
Oc1cccc(C2C[C@H]3CC[C@H](C2)N3CCCc2ccccc2)c1 (relative stereo; 12a)	fulfilled
CC(C)(C)c1ccc(CN2[C@@H]3CC[C@@H]2CC(c2cccc(O)c2)C3)cc1 (relative stereo; 20b)	fulfilled

Problem: Please state whether Ki is below 3 nM for Oc1cccc(C2C[C@H]3CC[C@H](C2)N3CCCOc2ccccc2)c1 (relative stereo; 19b)
Solution: not fulfilled

Problem: Try this compound next: NC(=O)c1cccc(C2C[C@H]3CC[C@H](C2)N3CC(=O)C2CCCCC2)c1 (relative stereo; 30b)
Solution: not fulfilled

Problem: Try this compound next: CCCCCCCN1[C@@H]2CC[C@@H]1CC(c1cccc(C(N)=O)c1)C2 (relative stereo)
Solution: fulfilled
